Tested on: Hepatitis B virus
testProtocol: Antiviral activity against Hepatitis B virus infected in human HepG2.2.15 cells assessed as inhibition of HBV DNA replication after 72 hrs by PCR analysis
Assay type: functional, organism-based
reportedConditions: HepG2 2.2.15, 72 h
propertyName: IC50 (µM)
# output: bare number, implied unit µM

Task item: Hello, please tell me recorded IC50 for this one: C=CCc1ccc(Oc2ccc(/C=C/C=O)cc2)c(O)c1 [ISOSTREBLUSLIGNANALDEHYDE]
Reply: 61.2

----------
Collected IC50 values appear next to each entry.
Test system: Hepatitis B virus
testProtocol: Antiviral activity against Hepatitis B virus infected in human HepG2.2.15 cells assessed as inhibition of HBV DNA replication after 72 hrs by PCR analysis
Format: functional, organism-based
reportedConditions: HepG2 2.2.15, 72 h
# output: bare number, implied unit µM

C=CCc1ccc(O)c(-c2cc([C@H]3O[C@H](c4ccc(O)c(-c5cc(CC=C)ccc5O)c4)[C@@H](C)O[C@@H]3C)ccc2O)c1 [STREBLUSLIGNANOL F] ... 11.6

Task item: # return IC50 for COc1cc(C2c3cc(O)c(OC)cc3C[C@@H](CO)[C@@H]2CO[C@@H]2OC[C@@H](O)[C@H](O)[C@H]2O)ccc1O (some centres undefined) , test system: Hepatitis B virus
Reply: 17.7
